COND: in ethyl acetate, 298.15 K
METRIC_NAME: solubility (mole fraction)
Answer with a number only.

Request: Using the record for CC1(C)CC(NCCCCCCNC2CC(C)(C)NC(C)(C)C2)CC(C)(C)N1 , state its measured solubility (mole fraction).
Result: 0.145

* * *

COND: in methyl acetate, 293.15 K
METRIC_NAME: solubility (mole fraction)
Answer with a number only.

Request: Using the record for CC1(C)CC(NCCCCCCNC2CC(C)(C)NC(C)(C)C2)CC(C)(C)N1 , state its measured solubility (mole fraction).
Result: 0.102

* * *

COND: in isobutyl acetate, 303.15 K
METRIC_NAME: solubility (mole fraction)

Request: Using the record for CC1(C)CC(NCCCCCCNC2CC(C)(C)NC(C)(C)C2)CC(C)(C)N1 , state its measured solubility (mole fraction).
Result: 0.226
